biological target: T1, murine TfR expressed by murine neuroblastoma Neuro-2a cells (mouse, UniProt Q62351 1-763); assay: competition with C5-Alexa680 (100 nM) on living Neuro-2a cells, 3 hrs at 37 C, flow cytometry; Ki/app, mean ± SD
T1 construct: whole, on cells; also called mTfR (N2a cells)
T1 sequence (Q62351 whole entry): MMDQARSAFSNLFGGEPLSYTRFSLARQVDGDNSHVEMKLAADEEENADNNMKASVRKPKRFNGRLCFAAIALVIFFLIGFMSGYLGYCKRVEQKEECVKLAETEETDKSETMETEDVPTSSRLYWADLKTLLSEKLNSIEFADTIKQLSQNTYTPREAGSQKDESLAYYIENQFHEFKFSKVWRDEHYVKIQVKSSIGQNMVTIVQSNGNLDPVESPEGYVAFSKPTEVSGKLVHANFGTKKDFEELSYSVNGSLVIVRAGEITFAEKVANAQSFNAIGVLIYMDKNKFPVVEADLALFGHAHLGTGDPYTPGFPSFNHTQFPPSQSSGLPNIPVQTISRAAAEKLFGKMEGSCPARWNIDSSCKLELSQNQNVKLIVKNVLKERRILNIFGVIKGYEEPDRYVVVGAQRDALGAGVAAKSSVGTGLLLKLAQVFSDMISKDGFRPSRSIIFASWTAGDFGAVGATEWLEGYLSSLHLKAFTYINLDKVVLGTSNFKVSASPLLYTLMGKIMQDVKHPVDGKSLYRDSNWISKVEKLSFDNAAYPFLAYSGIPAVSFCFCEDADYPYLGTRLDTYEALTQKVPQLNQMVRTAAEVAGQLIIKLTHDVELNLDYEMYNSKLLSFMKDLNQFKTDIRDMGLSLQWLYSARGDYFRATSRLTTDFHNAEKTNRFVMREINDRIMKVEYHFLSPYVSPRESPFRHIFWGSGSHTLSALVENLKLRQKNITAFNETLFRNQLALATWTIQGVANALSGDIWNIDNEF
readout.type: pKi
Reminder that pKi is minus the log10 of a molar concentration.

Looking for the measured pKi of VHH B (B8) (VHH) VHH: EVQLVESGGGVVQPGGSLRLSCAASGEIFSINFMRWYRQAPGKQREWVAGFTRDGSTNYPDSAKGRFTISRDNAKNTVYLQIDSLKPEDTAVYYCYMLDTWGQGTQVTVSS , can you help?
7.25

Please do the same for VHH A (C5) (VHH, form with the C-terminal myc-His6 tag (x = 1), since the VHHs were detected with anti-6His or anti-cMyc; the same holds for m12 to m126) VHH: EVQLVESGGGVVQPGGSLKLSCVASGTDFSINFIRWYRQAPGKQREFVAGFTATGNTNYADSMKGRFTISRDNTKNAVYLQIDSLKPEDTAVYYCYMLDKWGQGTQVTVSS as well.
6.50

Same read-out for B8-MALAT1-ASO (VHH, not shown: small tags and cut ends, MALAT1 gapmer antisense oligonucleotide linked to the VHH, also called VHH-MALAT1-ASO wherein VHH is B8) VHH: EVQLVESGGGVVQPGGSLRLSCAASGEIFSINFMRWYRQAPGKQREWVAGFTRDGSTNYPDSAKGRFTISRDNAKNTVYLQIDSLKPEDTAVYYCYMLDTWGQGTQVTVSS ?
7.22

What do we get for C5-siSOD1m-5'VP (VHH, not shown: small tags and cut ends, siSOD1m-5'VP siRNA duplex linked by a stable linker (azide/alkyne click) to the VHH, also called VHH-siSOD1m-5'VP wherein VHH is C5) VHH: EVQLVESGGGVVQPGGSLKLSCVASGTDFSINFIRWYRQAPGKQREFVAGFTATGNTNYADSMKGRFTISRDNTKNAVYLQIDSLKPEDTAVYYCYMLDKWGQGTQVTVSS ?
6.79
